Test system: TO-3-N3 (biotin conjugate)
Assay: pull-down binding Z-score (relative to library population); higher = stronger binding
Conditions: RNA library: Library-2
endpointLabel: pull-down binding Z-score
One number for each entry.

As a guide, the following entries are already answered.
>  <sequenceContent>
GUGUCCUUUCUUCUGAGAGCUGGACAC [hsa-mir-6500]

>  <obsValue>
-0.375

$$$$
>  <sequenceContent>
ACAGCAGAGUGCUGU [IAV_invivo_M1_M2_7_Motif_17+IAV_invivo_M1_M2_7_Motif_17]

>  <obsValue>
-0.599

$$$$
>  <sequenceContent>
UCAUUAAUUGA

>  <obsValue>
-0.712

$$$$

// for each sequence below, give its pull-down binding Z-score
1. UUUGCCGUCGAAAAUAAUGGCAAA [hsa-mir-548am]
2. CAGAGUUCCCUUCUUGUGAGCUCAG [hsa-mir-6733]
3. UCCUGAGCUAGGAGGAUUAGGA [hsa-mir-5093]
4. GCUAGUCUUAAUGGAGUCACAUUAAUUGGAGAAGC
5. GGGUUCAAUAGAUUGCUUUAGCUGAAGCAAGCCU [hsa-mir-8054]
6. UGCCACCCAGCCCUGCAGAGCCCCUGACUC [hsa-mir-6814]

-0.422
-0.518
-0.171
0.378
0.125
0.562

# map each sequence to its pull-down binding Z-score
1. GCACCUCAUGGUGU
2. GAUGGAUUCUUAUGCUCCAUC [hsa-mir-136]
3. CUCGGCCAUCCUCCGUCUGCCCAG [hsa-mir-935]

[0.707, -0.326, -0.0566]

###

System: TO-3-N3 (biotin conjugate)
Assay: pull-down binding Z-score (relative to library population); higher = stronger binding
Settings: RNA library: Library-2
Task for the reader: assign each of the following sequences its reported pull-down binding Z-score.
Numbers only.

Batch request: pull-down binding Z-score per item, same order as input.
1. UGGCUUGCACCGUGACUCCCUCUCACCAAGCAAGUGUC [hsa-mir-4440]
2. GGGGCCCUACUUUAAGGGCCCU [hsa-mir-8087]
3. CCAUCAAGCCCCACCAGAAGGUGGAGGCCCAGGUGAG [hsa-mir-4721]
4. UUAUACCUGAUGCUCACGUAUAA [hsa-mir-208a]
5. GACUUGAGAUUAUAGUC [hsa-mir-3685]
6. CAAGAGAAGUGGGUUUUGUCGUGCCUGGUUUGCCUGGCACGAUAUUACGCACAACUAAUG

1: -0.387; 2: 0.997; 3: 0.105; 4: 0.398; 5: 0.268; 6: -0.455

I would be grateful if you could provide pull-down binding Z-score for each of the following entries.
1. GUGGAGUCGGGUCAGACUUCAA [hsa-mir-378c]
2. CAGAGGUCCCACAGCAGGGCUGGAAAGCACACCUGUGGGACUUCUG [hsa-mir-3922]
3. GCAGACGGGCGAUUUUGUUAAAGCCACUUGC
4. UAUAGGAAGGAAAUCUUAU [hsa-mir-6129]
5. GGAGGUUGCUAGUCAGGCUAGACAAAUGGUGCAAGCGAUGAGAACCAUUGGAACUCAUCCUAGCUCCAGUGCUGGUCUGAAAAAUGAUCUUC [IAV_invivo_M1_M2_7_Motif_15+IAV_invivo_M1_M2_7_Motif_15]

1: -0.461; 2: 0.224; 3: 0.648; 4: -0.671; 5: -0.55

Below is a list of sequences. For each, state its recorded pull-down binding Z-score.
1. GUGCCUGGAAUAUUGGUGAACAGAAAUCAAUACUGAGUCCUCUUUAUGCAUUUGCAUCAGAGGCUGCUCGUGUUGUACGAUCAAUUUUCUCCCGCAC [SHAPE_invivo_SARS-CoV-2_Motif_37]
2. CUUCCGAGUCAUAGGAAACUAUGACAUACAGAUCAACAGGGGCUCGCUUGAGCCCCCCAGCCAGUCGGAGG [mMTR1]
3. GUGAUGAACUGAAGAUUAAUGCGGCUUGUAGAAAGGUUCAACACAUGGUUGUUAAAGCUGCAUUAUUAGCAGACAAAUUCCCAGUUCUUCAC
4. GGCGGAGGCAGGCGUGACCGUUUGCC [hsa-mir-4632]
5. UCACUGUGAACAGUCUCAGUCAGUGA [hsa-mir-183]
6. AUGGUUUAGAGUUACACCCUGGGAGUUAACUGU [hsa-let-7c]

-0.254
-0.97
-0.0396
0.432
-0.81
0.351
